// values below are reported abundance fitness
B1: COUP transcription factor 1, residues 83 to 159; numbered along this chain, P10589 (parent)
chain: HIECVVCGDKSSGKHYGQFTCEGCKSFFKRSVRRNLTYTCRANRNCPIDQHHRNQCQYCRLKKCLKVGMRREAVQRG

Variants of: B1
Test: abundance fitness (aPCA) (normalised: wild type 0, dead -1); higher = more abundant; growth selection in yeast, the domain comes from the species named
Settings: Homo sapiens
Enter the number alone.

| Variant descriptor | Measured result |
| --- | --- |
| P47F | -0.023 |
| R44I | 0.038 |

Challenge: I'd like to know its abundance fitness. The variant in question is `C21I`
Response given: -0.999

Challenge: I'd like to know its abundance fitness. The variant in question is `V67D`
Response given: -0.398

Challenge: I'd like to know its abundance fitness. The variant in question is `L36H`
Response given: 0.095
